- experimentalSystem: c-kit kinase (Homo sapiens, UniProt P10721)
- Construct: The c-kit (or kinase domain thereof) is an active kinase in AlphaScreen; poly-Histidine tag (in-house protein only) (cleaved yes); host or cells: E. coli BL21(DE3)RIL, co-expressed with PTP1B
- Sequence (P10721 26-976): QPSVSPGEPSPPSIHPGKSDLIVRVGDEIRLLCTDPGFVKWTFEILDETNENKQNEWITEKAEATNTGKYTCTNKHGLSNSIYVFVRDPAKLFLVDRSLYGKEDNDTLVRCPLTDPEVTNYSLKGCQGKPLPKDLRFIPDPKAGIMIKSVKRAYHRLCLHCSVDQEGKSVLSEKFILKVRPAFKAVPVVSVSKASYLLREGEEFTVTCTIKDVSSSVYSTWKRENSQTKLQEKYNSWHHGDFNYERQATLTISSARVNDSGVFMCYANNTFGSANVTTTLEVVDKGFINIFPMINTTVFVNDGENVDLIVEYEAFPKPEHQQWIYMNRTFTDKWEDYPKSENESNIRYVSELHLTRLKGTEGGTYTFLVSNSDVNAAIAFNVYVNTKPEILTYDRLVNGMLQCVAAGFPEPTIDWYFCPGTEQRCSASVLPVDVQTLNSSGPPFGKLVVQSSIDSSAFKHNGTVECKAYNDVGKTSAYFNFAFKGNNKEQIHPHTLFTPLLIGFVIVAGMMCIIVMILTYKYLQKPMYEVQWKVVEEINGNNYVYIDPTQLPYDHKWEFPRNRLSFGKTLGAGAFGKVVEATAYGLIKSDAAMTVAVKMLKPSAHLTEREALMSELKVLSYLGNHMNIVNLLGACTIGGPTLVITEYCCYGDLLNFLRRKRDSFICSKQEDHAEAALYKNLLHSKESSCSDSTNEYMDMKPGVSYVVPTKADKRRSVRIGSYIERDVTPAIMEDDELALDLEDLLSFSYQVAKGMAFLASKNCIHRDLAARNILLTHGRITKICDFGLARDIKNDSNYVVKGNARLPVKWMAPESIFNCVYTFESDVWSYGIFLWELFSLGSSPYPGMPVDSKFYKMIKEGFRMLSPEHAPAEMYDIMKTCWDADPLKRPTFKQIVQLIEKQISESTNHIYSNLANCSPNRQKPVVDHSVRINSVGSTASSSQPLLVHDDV
- experimentDescription: c-Kit biochemical assay, AlphaScreen, 10 μM ATP
- settings: c-kit biochemical inhibitory activity; read-out: Biochemical activity (IC50 μM) Kit
quantityName: IC50

Fill in: IC50 of Cc1ncc(-c2cc3c(N4CCN(C(=O)Nc5ccc(OC(F)(F)F)cc5)CC4)ncnc3[nH]2)s1 is ___ 0.0001 to 1 µM

Same again, this time with O=C(NCc1ccc(F)cc1)N1CCN(c2ncnc3cc(C4CCNCC4)sc23)CC1 10 to 200 µM

Check NS(=O)(=O)c1ccc(-c2ncnc3[nH]c(-c4ccc(F)cc4)cc23)cc1 too. 1 to 10 µM
